# assay-method-text: Protein binding in monkey plasma
# Format: ADME, cell-free, Macaca mulatta
# condition-info: rhesus monkey, read-out: PPB (converted)
recorded-endpoint: fraction unbound
Output spec: single numeric token, no unit.

**Q:** // returns reported fraction unbound for input COc1ccccc1[C@H](Cn1c(=O)n([C@H]2C[C@@](C)(C(=O)O)C2)c(=O)c2c(C)c(-c3ncco3)sc21)OC1CCOCC1
**A:** 0.043

###

Assay system Voltage-gated inwardly rectifying potassium channel KCNH2 (Homo sapiens, UniProt Q12809); read-out recorded as pIC50.
pIC50: −log10 of the molar value.

COc1ccccc1[C@H](Cn1c(=O)n(C(C)(C)C(=O)O)c(=O)c2c(C)c(-c3ncco3)sc21)OC1CCOCC1 | < 4.52

Now consider a different molecule.
**Q:** What value of pIC50 on Voltage-gated inwardly rectifying potassium channel KCNH2 (Homo sapiens, UniProt Q12809) does COc1ccccc1[C@H](Cn1c(=O)n([C@H]2C[C@@](C)(C(=O)O)C2)c(=O)c2c(C)c(-c3ncco3)sc21)OC1CCOCC1 have?
**A:** < 4.52

###

# target-or-system: Cytochrome P450 3A4 (Homo sapiens)
# Sequence (P08684 whole entry): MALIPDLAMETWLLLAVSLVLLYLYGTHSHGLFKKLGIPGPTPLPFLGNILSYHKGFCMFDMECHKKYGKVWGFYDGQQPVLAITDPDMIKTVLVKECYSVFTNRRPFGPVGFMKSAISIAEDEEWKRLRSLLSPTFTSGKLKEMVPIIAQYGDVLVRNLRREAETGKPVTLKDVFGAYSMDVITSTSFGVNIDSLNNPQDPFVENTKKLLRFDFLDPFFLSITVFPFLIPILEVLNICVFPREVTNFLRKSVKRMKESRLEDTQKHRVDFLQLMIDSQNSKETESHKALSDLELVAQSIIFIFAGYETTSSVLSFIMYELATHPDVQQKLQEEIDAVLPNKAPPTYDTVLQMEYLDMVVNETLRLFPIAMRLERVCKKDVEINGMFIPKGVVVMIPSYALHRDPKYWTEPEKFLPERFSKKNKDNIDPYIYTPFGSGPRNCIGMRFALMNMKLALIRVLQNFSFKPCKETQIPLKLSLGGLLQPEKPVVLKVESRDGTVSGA
# assay-method-text: Inhibition of CYP3A4 (unknown origin) using testosterone as substrate
# Format: ADME
recorded-endpoint: IC50

COc1ccccc1[C@H](Cn1c(=O)n(C(C)(C)C(=O)O)c(=O)c2c(C)c(-c3ncco3)sc21)OC1CCOCC1 | > 30 µM

Next compound, IC50 to be filled in.
**Q:** State the recorded IC50 for this entry: COc1ccccc1[C@H](Cn1c(=O)n([C@H]2C[C@@](C)(C(=O)O)C2)c(=O)c2c(C)c(-c3ncco3)sc21)OC1CCOCC1
**A:** > 30 µM

###

# assay-method-text: in vivo
# condition-info: Sprague-Dawley, rat, liver, po, 3 mg/kg
# Description: Drug concentration in liver of Sprague-Dawley rat at 3 mg/kg, po measured after 1 hr by LC-MS/MS analysis
recorded-endpoint: concentration at 1 h (ng/mL)
Reply with just the number (in ng/mL).

**Q:** concentration at 1 h for COc1ccccc1[C@H](Cn1c(=O)n([C@H]2C[C@@](C)(C(=O)O)C2)c(=O)c2c(C)c(-c3ncco3)sc21)OC1CCOCC1 ?
**A:** 2940

###

# assay-method-text: Volume of distribution in Sprague-Dawley rat at 1 mg/kg, iv measured for 0.25 to 24 hrs by LC-MS/MS analysis
# Assay type: ADME, organism-based
# condition-info: in vivo, time 0.25-24 hrs
recorded-endpoint: Vd (L/kg)
Your answer should be a plain number; it is taken to be in L/kg.

Take a look at these entries with their results.
COc1ccccc1[C@H](Cn1c(=O)n([C@H]2C[C@@](C)(C(=O)O)C2)c(=O)c2c(C)c(-c3ncco3)sc21)OC1CCOCC1 | 2.8
COc1ccccc1[C@H](Cn1c(=O)n(C(C)(C)C(=O)O)c(=O)c2c(C)c(-c3ncco3)sc21)OC1CCOCC1 [FIRSOCOSTAT] | 21.4

**Q:** Reported Vd, compound COc1ccccc1[C@H](Cn1c(=O)n([C@H]2C[C@@H](C(=O)O)C2)c(=O)c2c(C)c(-c3ncco3)sc21)OC1CCOCC1 : ____
**A:** 2.6

###

# assay-method-text: Half life in Sprague-Dawley rat at 1 mg/kg, iv measured for 0.25 to 24 hrs by LC-MS/MS analysis
# Assay type: ADME, organism-based
# condition-info: in vivo, time 0.25-24 hrs
In this section we review reported half-life values for a set of molecules.
# value in min; strip the unit string

COc1ccccc1[C@H](Cn1c(=O)n(C(C)(C)C(=O)O)c(=O)c2c(C)c(-c3ncco3)sc21)OC1CCOCC1 | 426
COc1ccccc1[C@H](Cn1c(=O)n([C@H]2C[C@@H](C(=O)O)C2)c(=O)c2c(C)c(-c3ncco3)sc21)OC1CCOCC1 | 12

**Q:** Tell me the measured half-life of COc1ccccc1[C@H](Cn1c(=O)n([C@H]2C[C@@](C)(C(=O)O)C2)c(=O)c2c(C)c(-c3ncco3)sc21)OC1CCOCC1 , please.
**A:** 30

###

# assay-method-text: in vivo
# condition-info: Sprague-Dawley, rat, liver, po, 3 mg/kg
# Description: Drug concentration in liver of Sprague-Dawley rat at 3 mg/kg, po measured after 4 hrs by LC-MS/MS analysis
recorded-endpoint: concentration at 4 h

**Q:** Fill in: concentration at 4 h of COc1ccccc1[C@H](Cn1c(=O)n([C@H]2C[C@@](C)(C(=O)O)C2)c(=O)c2c(C)c(-c3ncco3)sc21)OC1CCOCC1 is ___
**A:** 4830 ng/mL

###

# assay-method-text: AUC (0 to t) in Sprague-Dawley rat at 3 mg/kg, po measured for 0.25 to 24 hrs by LC-MS/MS analysis
# Assay type: ADME, organism-based
# condition-info: in vivo, time 0.25-24 hrs
compounds and their reported AUC(0-t)
Write the value in ng·h/mL as a bare number.

COc1ccccc1[C@H](Cn1c(=O)n([C@H]2C[C@@](C)(C(=O)O)C2)c(=O)c2c(C)c(-c3ncco3)sc21)OC1CCOCC1 | 174

**Q:** What value of AUC(0-t) has been reported for the following compound? COc1ccccc1[C@H](Cn1c(=O)n(C(C)(C)C(=O)O)c(=O)c2c(C)c(-c3ncco3)sc21)OC1CCOCC1 [FIRSOCOSTAT]
**A:** 628

**Q:** I have this compound here, COc1ccccc1[C@H](Cn1c(=O)n([C@H]2C[C@@H](C(=O)O)C2)c(=O)c2c(C)c(-c3ncco3)sc21)OC1CCOCC1 , and I need its recorded AUC(0-t).
**A:** 13.8

###

# assay-method-text: in vivo
# condition-info: Sprague-Dawley, rat, liver, po, 3 mg/kg
# Description: Drug concentration in liver of Sprague-Dawley rat at 3 mg/kg, po measured after 0.25 hrs by LC-MS/MS analysis
recorded-endpoint: concentration at 0.25 h (ng/mL)
Just the number in ng/mL, nothing appended.

**Q:** # query: concentration at 0.25 h of entry COc1ccccc1[C@H](Cn1c(=O)n([C@H]2C[C@@](C)(C(=O)O)C2)c(=O)c2c(C)c(-c3ncco3)sc21)OC1CCOCC1
**A:** 3390

###

Consider the following IC50 values measured on Cytochrome P450 2D6 (Homo sapiens, UniProt P10635).
Sequence (P10635 whole entry): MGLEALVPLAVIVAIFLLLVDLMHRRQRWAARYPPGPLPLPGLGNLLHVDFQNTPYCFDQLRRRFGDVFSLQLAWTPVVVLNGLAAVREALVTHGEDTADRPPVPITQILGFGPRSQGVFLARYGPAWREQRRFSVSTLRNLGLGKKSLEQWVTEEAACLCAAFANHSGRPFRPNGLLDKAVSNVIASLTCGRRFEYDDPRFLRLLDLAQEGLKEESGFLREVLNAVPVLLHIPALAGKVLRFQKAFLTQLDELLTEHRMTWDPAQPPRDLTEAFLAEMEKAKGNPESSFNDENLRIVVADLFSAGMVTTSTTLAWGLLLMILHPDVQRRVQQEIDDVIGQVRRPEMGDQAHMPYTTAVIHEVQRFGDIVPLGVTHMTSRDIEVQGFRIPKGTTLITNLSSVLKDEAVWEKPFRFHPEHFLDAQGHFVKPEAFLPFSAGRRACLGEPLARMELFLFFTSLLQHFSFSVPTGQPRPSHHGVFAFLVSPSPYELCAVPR

COc1ccccc1[C@H](Cn1c(=O)n([C@H]2C[C@@](C)(C(=O)O)C2)c(=O)c2c(C)c(-c3ncco3)sc21)OC1CCOCC1 | > 30 µM

Now, please, on to the next molecule.
**Q:** GET /values?readout=IC50&system=Cytochrome P450 2D6 (Homo sapiens, UniProt P10635)&item= COc1ccccc1[C@H](Cn1c(=O)n(C(C)(C)C(=O)O)c(=O)c2c(C)c(-c3ncco3)sc21)OC1CCOCC1 [FIRSOCOSTAT]
**A:** > 30 µM

###

Each entry below lists one item and its recorded fraction unbound value.
# assay-method-text: Protein binding in rat plasma
# Format: ADME, cell-free
# condition-info: read-out: PPB (converted)
API doc: respond with a numeric literal and nothing else, no unit.

COc1ccccc1[C@H](Cn1c(=O)n([C@H]2C[C@@](C)(C(=O)O)C2)c(=O)c2c(C)c(-c3ncco3)sc21)OC1CCOCC1 | 0.029

**Q:** Consider the compound COc1ccccc1[C@H](Cn1c(=O)n(C(C)(C)C(=O)O)c(=O)c2c(C)c(-c3ncco3)sc21)OC1CCOCC1 and give its measured fraction unbound.
**A:** 0.014
